src = patent US10206937B2

Recorded Ki values for a group of molecules are listed next.
- tested.target: NDM-1 (Klebsiella pneumoniae, UniProt C7C422)
- Sequence (C7C422 29-270, looked up, species assumed): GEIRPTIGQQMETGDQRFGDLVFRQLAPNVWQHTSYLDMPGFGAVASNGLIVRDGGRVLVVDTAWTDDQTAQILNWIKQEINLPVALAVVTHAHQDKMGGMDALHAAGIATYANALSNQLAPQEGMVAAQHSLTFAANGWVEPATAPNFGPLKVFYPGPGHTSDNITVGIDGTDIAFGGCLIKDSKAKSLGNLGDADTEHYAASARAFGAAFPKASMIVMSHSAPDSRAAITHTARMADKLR
- test.name: Inhibition of purified class B carbapenemase NDM-1 (Ki, imipenem substrate)
- Type: biochemical
- condition.details: NDM-1, substrate imipenem; read-out: Ki NDM-1, Imipenem
endpoint.name: Ki

In [3]: df
Out[3]:
                                   molecule    data_value
0  COc1ccc2c(c1C(=O)O)OB(O)[C@@H](SCCN1CCNCC1)C2      > 100 nM
1  COc1ccc2c(c1C(=O)O)OB(O)[C@@H](Sc1nnc[nH]1)C2  10 to 100 nM
2        CC(=N)S[C@H]1Cc2cccc(C(=O)O)c2OB1O  10 to 100 nM
3  COc1ccc2c(c1C(=O)O)OB(O)[C@@H](Sc1nnc(SCC(=N)N)s1)C2       < 10 nM
4  O=C(O)c1cccc2c1OB(O)[C@@H](OCc1ccccc1)C2  10 to 100 nM
5  COc1ccc2c(c1C(=O)O)OB(O)[C@@H](Sc1cnns1)C2      > 100 nM
6   Cn1cnnc1S[C@H]1Cc2ccc(F)c(C(=O)O)c2OB1O  10 to 100 nM
